test system: kochia; assay: Test A pre-/postemergence herbicide test; format: in vivo, Kochia scoparia; conditions: 125 g ai/ha; visual rating, 0 to 100 scale, 0 no effect, 100 complete control; approximately 10 days; preemergence
value-kind: Plant response rating, Kochia
Quick one: just the number, no unit, thanks!

Example cases with answers are listed next.
{"molecule": "O=C1NCC(c2ccc(C(F)(F)F)cc2)C1C(=O)Nc1ccc(F)c(F)c1F (stereo not shown) [Compound 232]", "system": "kochia", "Plant response rating, Kochia": 70}
{"molecule": "Cc1ccc(C2CNC(=O)C2C(=O)Nc2ccccc2Cl)cc1 (racemic) [Compound 152]", "system": "kochia", "Plant response rating, Kochia": 30}
{"molecule": "Cc1ccc(F)c(NC(=O)C2C(=O)NCC2c2cccc(C(F)(F)F)c2)c1 (racemic) [Compound 183]", "system": "kochia", "Plant response rating, Kochia": 0}
{"molecule": "Cc1ccc(C2CNC(=O)C2C(=O)Nc2cccc(F)c2F)cc1 (racemic) [Compound 151]", "system": "kochia", "Plant response rating, Kochia": 90}
{"molecule": "O=C1NCC(c2ccc(Cl)cc2)C1C(=O)Nc1ccccc1C(F)(F)F (stereo not shown) [Compound 219]", "system": "kochia", "Plant response rating, Kochia": 10}

Query molecule follows.
Tell me its Plant response rating, Kochia given O=C1NCC(c2ccc(Cl)cc2)C1C(=O)Nc1cccc(Cl)c1Cl (stereo not shown) [Compound 221] as the entry. 0

---

test system: wheat (winter wheat); test: Test C pre-/postemergence herbicide test; type: in vivo, Triticum aestivum; details: Preemergence, 125 g ai/ha; scale 0 to 100 (0 no effect, 100 complete control)
value-kind: Plant response rating, Wheat
Quick one: just the number, no unit, thanks!

{"molecule": "O=C1NCC(c2cccc(Br)c2)C1C(=O)Nc1ccccc1F (centres unmarked)", "meas-value": 5}
{"molecule": "O=C1NCC(c2cccc(OC(F)(F)F)c2)C1C(=O)Nc1cccc(F)c1F (centres unmarked)", "meas-value": 30}
{"molecule": "O=C1NCC(c2ccccc2)C1C(=O)Nc1ccccc1F (racemic)", "meas-value": 0}
{"molecule": "O=C1NCC(c2ccc(C(F)(F)F)cc2)C1C(=O)Nc1ccc(F)c(F)c1F (centres unmarked)", "meas-value": 0}

Tell me its Plant response rating, Wheat given O=C1NCC(c2cccc(Br)c2)C1C(=O)Nc1cccc(F)c1F (centres unmarked) as the entry. 15

---

system: corn; assay: Test C pre-/postemergence herbicide test; assay type: in vivo, Zea mays; conditions: Preemergence, 125 g ai/ha; scale 0 to 100 (0 no effect, 100 complete control)
Catalogue of Plant response rating, Corn readings, one per entry.
Quick one: just the number, no unit, thanks!

{"molecule": "O=C1NCC(c2ccc(C(F)(F)F)cc2)C1C(=O)Nc1ccc(F)c(F)c1F (stereo not shown)", "Plant response rating, Corn": 70}
{"molecule": "O=C1NCC(c2ccc(F)c(C(F)(F)F)c2)C1C(=O)Nc1ccccc1F (racemic)", "Plant response rating, Corn": 40}
{"molecule": "O=C1NCC(c2cccc(C(F)F)c2)C1C(=O)Nc1cccc(F)c1F (racemic)", "Plant response rating, Corn": 0}
{"molecule": "O=C1NCC(c2ccc(F)cc2)C1C(=O)Nc1cccc(F)c1F (racemic)", "Plant response rating, Corn": 15}
{"molecule": "O=C1NCC(c2cccc(Cl)c2)C1C(=O)Nc1cccc(F)c1F (racemic)", "Plant response rating, Corn": 75}
{"molecule": "O=C1NCC(c2ccc(F)c(C(F)(F)F)c2)C1C(=O)Nc1ccccc1C(F)(F)F (racemic)", "Plant response rating, Corn": 40}

Query molecule follows.
Tell me its Plant response rating, Corn given O=C1NCC(c2ccc(F)c(Cl)c2)C1C(=O)Nc1cccc(F)c1F (stereo not shown) as the entry. 10

The measured values listed here are drawn from patent US10294202B2.
